Values compiled from the array DNA melting data of Ke et al. (doi:10.1101/2024.01.08.574731).

Assay: folding enthalpy; higher = less favourable; fluorescence melt of hairpins on a sequencing array, two-state fit
Conditions: sodium 0.088 M
measured_property: folding enthalpy (kcal/mol)
A number alone suffices; assume kcal/mol.

Q: Would you mind telling me what folding enthalpy value was observed for GCGGTGGCCCGC ((((....)))) ?
Result: -16.3

Q: What do you have for GATCAGAAGTCTGATC ((((((....)))))) ?
Result: -30

Q: What do you have for GATCAAAGACTTGATC ((((((....)))))) ?
Result: -25.1

Q: What do you have for GGGTGACCGAAAGGTCCC (((..(((....)))))) ?
Result: -12.5

Q: What do you have for GCACCCGAAAGGGCCTGC ((((((....)))..))) ?
Result: -13.4

Q: What do you have for GACAGCCCGAAAGGGGTC (((..(((....)))))) ?
Result: -11.4

Q: What do you have for GCGTCCGGAAACGGGTGC ((..(((....)))..)) ?
Result: -30.8

Q: What do you have for GTCTTAACGAAAGTTGAC (((..(((....)))))) ?
Result: -15.8

Q: What do you have for GATCTCCCGTGAGATC ((((((....)))))) ?
Result: -35.4

Q: What do you have for GTATACTCGAAAGAGTAC (((..(((....)))))) ?
Result: -11.6

Q: What do you have for GGTGGGGGAAACTCCACC (((((.(....).))))) ?
Result: -45.9

Q: What do you have for GCTTTAGGAAACTAAAGC (((((((....))))))) ?
Result: -39.1

Q: What do you have for GATCGCCTATGCGATC ((((((....)))))) ?
Result: -31.6

Q: What do you have for GTAGTCGAAAGACATAC ((((((....))).))) ?
Result: -16.2

Q: What do you have for GCGGGGCGAAAGCCGTGC ((..(((....)))..)) ?
Result: -27.3

Q: What do you have for GACTGCGAAAGCACGTC ((((((....))).))) ?
Result: -15.8

Q: What do you have for GTGAGGGGAAACCTTCGC (.((.((....)).)).) ?
Result: -21.5

Q: What do you have for GATCGTGAGACGATC ((((((...)))))) ?
Result: -33.8

Q: What do you have for GATCTTCATGAAGATC ((((((....)))))) ?
Result: -43.4

Q: What do you have for GTTCACGAAAGTGAAAAC ((((((....)))..))) ?
Result: -11.7

Q: What do you have for GGTCAACCGAAAGGTACC (((..(((....)))))) ?
Result: -15.9

Q: What do you have for GAAACACGAAAGTGGTTC (((.(((....))).))) ?
Result: -44.3

Q: What do you have for GGGTGCGAAAGCAGTCCC ((((((....)))..))) ?
Result: -14.6

Q: What do you have for GTTTGTACGAAAGTAAAC (((..(((....)))))) ?
Result: -24.3

Q: What do you have for GAAGTTGGAAACAACCTC ((.((((....)))).)) ?
Result: -15

Q: What do you have for GGTGTTGGAAACAACACC (((((((....))))))) ?
Result: -38.4

Q: What do you have for GCGGTCGAAAGACTCGC ((((((....))).))) ?
Result: -29

Q: What do you have for GCTGCGCGAAAGCTCGGC ((.(.((....)).).)) ?
Result: -22.4

Q: What do you have for GCCCCCGGAAACGGGGAC (.(((((....))))).) ?
Result: -11.4

Q: What do you have for GGGTTCTCGAAAGAGCCC (((..(((....)))))) ?
Result: -26.5

Q: What do you have for GATATGGGAAACTATATC (((((.(....).))))) ?
Result: -23.2

Q: What do you have for GGGTCTGGAAACGGACTC (.(((.(....).))).) ?
Result: -28.3

Q: What do you have for CGAGACGGAAACGTGTCG (((.(((....))).))) ?
Result: -37.6

Q: What do you have for GGCCACGAAAGTGTAGCC ((((((....)))..))) ?
Result: -25

Q: What do you have for GTAAAACGAAAGTTCTAC (((.(((....))).))) ?
Result: -13.9

Q: What do you have for AGTAGGAAACTACT (((((....))))) ?
Result: -16.9

Q: What do you have for GACAGGGGAAACCCTGTC (((((((....))))))) ?
Result: -42.6

Q: What do you have for GCCATGGGAAACCGTGGC ((((.((....)).)))) ?
Result: -40.6

Q: What do you have for GATCCTGACGAGGATC ((((((....)))))) ?
Result: -36.4

Q: What do you have for GCTCGTGGAAACACAAGC (((.(((....))).))) ?
Result: -20

Q: What do you have for GGGCAGGCGAAAGCCCCC (((..(((....)))))) ?
Result: -14.5

Q: What do you have for GATCCTCGGAGGATC ((((((...)))))) ?
Result: -33.5

Q: What do you have for GCACTCGAAAGAGCCTGC ((((((....)))..))) ?
Result: -12.9

Q: What do you have for GTATACGAAAGTAAATAC ((((((....)))..))) ?
Result: -14.8

Q: What do you have for GGCGAAGGAAACCTCGCC (((((.(....).))))) ?
Result: -46.7

Q: What do you have for GCTGAGGGAAACCTTAGC (((.(((....))).))) ?
Result: -33.7

Q: What do you have for GCGCAACGAAAGTTACGC (((.(((....))).))) ?
Result: -44.9

Q: What do you have for GGGCAGGGAAACCCACCC (((..((....))..))) ?
Result: -24.5

Q: What do you have for GACTCCGAAAGGACTGTC ((((((....)))..))) ?
Result: -15.7

Q: What do you have for GCGCTGCGAAAGCACAGC ((..(((....)))..)) ?
Result: -17.6
